test system: C. albicans 10231; experiment: MIC, microdilution broth method (NCCLS); assay type: cell-based; settings: cation supplemented Mueller Hinton broth, 35° C., 16-20 hours; unit assumed
MEASUREMENT_NAME: MIC C. albicans 10231 (µg/mL)

COMPOUND | QUALIFIER_SYMBOL | RECORDED_MEASUREMENT
NCCc1ccc(OCCC2(Cc3ccccc3)C=CCCC2)cc1 (stereo not shown) [Compound 17] | ≤ | 16
CC1COc2c(N3CCN(C)CC3)c(F)cc3c(=O)c(C(=O)O)cn1c23 (stereo not shown) [OFX, reference compound] | > | 128
NCCCc1cnc(NCCC2(Cc3ccccc3)C=CCCC2)nc1 (stereo not shown) [Compound 49] | = | 32
NCCc1ccc(OCCC2(Cc3cc(Cl)cc(Cl)c3)C=CCCC2)cc1 (stereo not shown) [Compound 59] | = | 8

###

biological target: Kinase A and SpoOF (Bacillus subtilis, UniProt P16497); assay: Autophosphorylation of Kinase A and Transphosphorylation of SPoOF Assay; assay type: biochemical; settings: inhibition of Kinase A autophosphorylation / SpoOF transphosphorylation, [32P]ATP, gel, phosphoimager
Labelling: IC50 reported below 90 mM becomes Met; at or above becomes Not met.

COMPOUND | CATEGORY
CNCCc1cccc(OCCC2(Cc3ccccc3)C=CCCC2)c1 (stereo not drawn) [Compound 37] | Not met
CC(C)C1(CCOc2ccc(CCNCCN3CCCC3)cc2)C=CCCC1 (stereo not drawn) [Compound 23] | Not met
O=C(O)CCc1ccc(OCCC2(c3ccc(F)cc3)C=CCCC2)cc1 (stereo not drawn) [Compound 12] | Not met
COc1ccc(CC2(CCOc3ccc(CCCN)cc3)C=CCCC2)cc1 (stereo not drawn) [Compound 43] | Not met
CC(C)C1(CCOc2ccc(CCN)cc2)C=CCCC1 (stereo not drawn) [Compound 22] | Not met
NCCc1ccc(OCCC2(Cc3ccc([N+](=O)[O-])cc3)CCCCC2)cc1 [Compound 16] | Met
N=C(N)NCCc1ccc(OCCC2(Cc3cccc(Cl)c3)C=CCCC2)cc1 (stereo not drawn) [Compound 45] | Met
NCCc1ccc(OCCC2(Cc3cccc(Cl)c3)C=CCCC2)cc1 (stereo not drawn) [Compound 39] | Met

###

Target: UniProt:P16497
Sequence (P16497 1-606): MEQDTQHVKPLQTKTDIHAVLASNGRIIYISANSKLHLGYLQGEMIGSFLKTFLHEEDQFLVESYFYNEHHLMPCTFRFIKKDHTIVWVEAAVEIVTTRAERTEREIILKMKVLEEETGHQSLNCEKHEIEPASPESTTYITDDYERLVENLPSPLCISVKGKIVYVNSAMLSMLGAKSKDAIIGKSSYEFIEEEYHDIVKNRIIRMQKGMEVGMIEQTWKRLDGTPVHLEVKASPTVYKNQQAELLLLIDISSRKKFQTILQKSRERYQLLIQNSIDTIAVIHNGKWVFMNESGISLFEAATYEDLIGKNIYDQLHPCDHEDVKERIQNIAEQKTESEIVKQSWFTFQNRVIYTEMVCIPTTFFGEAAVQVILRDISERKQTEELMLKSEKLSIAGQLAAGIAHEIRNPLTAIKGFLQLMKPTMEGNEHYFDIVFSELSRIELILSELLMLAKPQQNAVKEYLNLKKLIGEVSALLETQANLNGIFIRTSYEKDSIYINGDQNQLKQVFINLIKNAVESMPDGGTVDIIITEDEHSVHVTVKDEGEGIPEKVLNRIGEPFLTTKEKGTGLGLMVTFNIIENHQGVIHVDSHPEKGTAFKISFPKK
Assay: Autophosphorylation of Kinase A and Transphosphorylation of SPoOF Assay
Assay type: biochemical
Settings: inhibition of Kinase A autophosphorylation / SpoOF transphosphorylation, [32P]ATP, gel, phosphoimager
Binary call on IC min: y from 100 mM upward, n beneath that.

MOLECULE | CATEGORY
COc1ccc(CC2(CCOc3ccc(CCNC(=N)N)cc3)C=CCCC2)cc1 (stereo not shown) | n
NCCNCCc1ccc(OCCC2(Cc3cccc(Cl)c3)C=CCCC2)cc1 (stereo not shown) | n
COc1cc(CN)ccc1OCCC1(Cc2ccccc2)C=CCCC1 (stereo not shown) | y
CC(C)C1(CCOc2ccc(CCNCCN3CCCC3)cc2)C=CCCC1 (stereo not shown) | y
CC(C)NCCc1ccc(OCCC2(CCCc3ccccc3)CCCCC2)cc1 | y
OCCNCCCc1ccc(OCCC2(c3ccc(F)cc3)C=CCCC2)cc1 (stereo not shown) | y
COc1ccc(CC2(CCOc3ccc(CCN)cc3)C=CCCC2)cc1 (stereo not shown) | n
C1=CC(CCOc2ccc(CCNCCN3CCCC3)cc2)(Cc2ccccc2)CCC1 (stereo not shown) | n
COc1ccc(CC2(CCOc3ccc(C(N)=O)cc3)C=CCCC2)cc1 (stereo not shown) | y
CNCCCc1cnc(NCCC2(Cc3ccccc3)C=CCCC2)nc1 (stereo not shown) | y
CNCCCc1ccc(OCCC2(c3ccc(F)cc3)C=CCCC2)cc1 (stereo not shown) | y
CCCCNCCCc1ccc(OCCC2(c3ccc(F)cc3)C=CCCC2)cc1 (stereo not shown) | y
Fc1ccc(C2(CCOc3ccc(CCCNCc4ccccc4)cc3)C=CCCC2)cc1 (stereo not shown) | y
CCCNCCCc1ccc(OCCC2(c3ccc(F)cc3)C=CCCC2)cc1 (stereo not shown) | y
NCCCCc1ccc(OCCC2(Cc3ccccc3)C=CCCC2)cc1 (stereo not shown) | y
Clc1cccc(CC2(CCOc3ccc(CCNCCN4CCCC4)cc3)C=CCCC2)c1 (stereo not shown) | n
CC(C)C1(CCOc2ccc(CCN)cc2)C=CCCC1 (stereo not shown) | n
COc1ccc(CC2(CCOc3ccc(CCCNCCN4CCCC4)cc3)C=CCCC2)cc1 (stereo not shown) | n
C1=CC(CCOc2ccc(CCCNCCN3CCCC3)cc2)(Cc2ccccc2)CCC1 (stereo not shown) | n
